Molecular target: MbCN (Equus caballus, UniProt P68082)
Sequence (P68082 whole entry): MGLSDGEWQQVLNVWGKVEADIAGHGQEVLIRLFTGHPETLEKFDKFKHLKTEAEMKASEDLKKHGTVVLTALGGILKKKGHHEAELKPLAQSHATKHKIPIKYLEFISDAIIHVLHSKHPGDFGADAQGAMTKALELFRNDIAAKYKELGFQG
Assay: 1H NMR titration of MbCN with OA
Assay type: binding, horse
Conditions: apparent Kd (Kd1, KMb1), specific OA binding to MbCN, heme 8-CH3 signal loss, OA:Mb < 2:1, pH 7.4, 35 °C
Outcome Measure: pKd
Answer as the number alone; pKd is minus log10 of concentration in mol/L.

Ask | Input "CCCCCCCC/C=C\CCCCCCCC(=O)O" , output reported pKd.
Reply | 4.35

---

Experiment: OA solubility from NMR visible EFG
Type: physicochemical
Settings: 30 mM Tris buffer, 35 °C, pH 7.4, aqueous buffer, kinetic from dmso stock
Outcome Measure: Solubility (µM)
State just the number; it will be interpreted in µM.

Ask | Input CCCCCCCC/C=C\CCCCCCCC(=O)O [OA, oleic acid] , output reported Solubility.
Reply | 1430

// data source = paper PMC4633329
